System: L-929 (murine fibroblasts)
method notes: Cytotoxicity assay (MTT, 5 d)
Assay type: cell-based
experimental setup: Mus musculus, L929, 120 h
assay readout: pIC50
Hey, just a heads up that pIC50 is the negative log base 10 of the concentration in molar.

CC(C)CCO[C@@H]1[C@@H](C)[C@H]2[C@@H]3C(=O)C(Cl)(Cl)C(=O)[C@H](C)C(=O)O[C@@H](C)/C=C/C=C\[C@@H](C)[C@@H]3C=C[C@@H]2C[C@@]1(C)O = 4.35

// switching to the query compound
Task item: Param item = CCCCO[C@@H]1[C@@H](C)[C@H]2[C@@H]3C(=O)C(Cl)(Cl)C(=O)[C@H](C)C(=O)O[C@@H](C)/C=C/C=C\[C@@H](C)[C@@H]3C=C[C@@H]2C[C@@]1(C)O ; retrieve measured pIC50.
Reply: 4.31

###

Parameter solubility at 18 h: see the listing below.
method notes: Determination of water solubility, Method 1 (suspension in tap water, weighing)
Format: physicochemical
experimental setup: thermodynamic from solid, room temperature, 18 h stirring, triplicates
Description: Determination of Water Solubility 10 mg of compound was suspended in 1 L of tap water and the solution was stirred at room temperature for 18 h. Upon completion, solution was sonicated for another hour, centrifuged and the supernatant was separated from the precipitate. Both aliquots were lyophilized, and weighed. This procedure was performed in triplicates.
Please reply with the bare figure in µg/mL and do not write the unit itself.

// solved cases for solubility at 18 h follow
C[C@@H]1C(=O)O[C@@H](C)/C=C/C=C\[C@@H](C)[C@@H]2C=C[C@@H]3C[C@@](C)(O)[C@H](O[N+](=O)[O-])[C@@H](C)[C@H]3[C@@H]2C(=O)C(Cl)(Cl)C1=O = 310
CC1=C[C@@H](C)C2C3C(=O)C(Cl)(Cl)C(=O)[C@H](C)C(=O)O[C@@H](C)/C=C/C=C\[C@@H](C)[C@@H]3C=C[C@@H]2C1 (stereo partly shown) = 3

Task item: Param item = C[C@@H]1C(=O)O[C@@H](C)/C=C/C=C\[C@@H](C)[C@@H]2C=C[C@@H]3C[C@@]4(C)O[C@H]4[C@@H](C)[C@H]3[C@@H]2C(=O)C(Cl)(Cl)C1=O ; retrieve measured solubility at 18 h.
Reply: 14

Task item: Param item = C[C@@H]1C(=O)O[C@@H](C)/C=C/C=C\[C@@H](C)[C@@H]2C=C[C@@H]3C[C@@](C)(O)[C@H](Cl)[C@@H](C)[C@H]3[C@@H]2C(=O)C(Cl)(Cl)C1=O ; retrieve measured solubility at 18 h.
Reply: 280

###

System: L-929 (murine fibroblasts)
method notes: Cytotoxicity assay (MTT, 5 d)
Format: cell-based
experimental setup: Mus musculus, L929, 120 h
Protocol: Cytotoxicity Assay The murine fibroblast cell line L-929 was obtained from the German Collection of Microorganisms and Cell Cultures (DSMZ) and maintained under conditions recommended by the depositor. […] After 5 d, viability was assessed by the MTT method. […] The absorbance at 570 nm was determined on a microplate reader and cell viability was expressed as percentage relative to the respective solvent control. Half-inhibitory concentrations (IC50) were determined by sigmoidal curve fitting.
assay readout: pIC50
Hey, just a heads up that pIC50 is the negative log base 10 of the concentration in molar.

// solved cases for pIC50 follow
C[C@@H]1C(=O)O[C@@H](C)/C=C/C=C\[C@@H](C)[C@@H]2C=C[C@@H]3C[C@@]4(C)O[C@H]4[C@@H](C)[C@H]3[C@@H]2C(=O)C(Cl)(Cl)C1=O = 5.68
CC1=C[C@@H](C)C2C3C(=O)C(Cl)(Cl)C(=O)[C@H](C)C(=O)O[C@@H](C)/C=C/C=C\[C@@H](C)[C@@H]3C=C[C@@H]2C1 (stereo partly shown) = 5.96
C[C@@H]1C(=O)O[C@@H](C)/C=C/C=C\[C@@H](C)[C@@H]2C=C[C@]3(C)C[C@]4(C)O[C@@H]4[C@@H](C)[C@H]3[C@@H]2C(=O)C(Cl)(Cl)C1=O = 4.99
C[C@@H]1C(=O)O[C@@H](C)/C=C/C=C\[C@@H](C)[C@@H]2C=C[C@@H]3C[C@@](C)(O)[C@H](Cl)[C@@H](C)[C@H]3[C@@H]2C(=O)C(Cl)(Cl)C1=O = 5.38

// switching to the query compound
Task item: Param item = C[C@@H]1C(=O)O[C@@H](C)/C=C/C=C\[C@@H](C)[C@@H]2C=C[C@@H]3C[C@@](C)(O)[C@H](Br)[C@@H](C)[C@H]3[C@@H]2C(=O)C(Cl)(Cl)C1=O ; retrieve measured pIC50.
Reply: 5.96

###

Parameter solubility: see the listing below.
method notes: Determination of water solubility, Method 2 (HPLC-MS standard curve, saturated solution in water)
Type: physicochemical
experimental setup: thermodynamic from solid; saturated solution in water, HPLC-MS standard curve
Please reply with the bare figure in µg/mL and do not write the unit itself.

C[C@@H]1C(=O)O[C@@H](C)/C=C/C=C\[C@@H](C)[C@@H]2C=C[C@@H]3C[C@@](C)(O)[C@H](Cl)[C@@H](C)[C@H]3[C@@H]2C(=O)C(Cl)(Cl)C1=O = 320
C[C@@H]1C(=O)O[C@@H](C)/C=C/C=C\[C@@H](C)[C@@H]2C=C[C@@H]3C[C@@](C)(O)[C@H](O[N+](=O)[O-])[C@@H](C)[C@H]3[C@@H]2C(=O)C(Cl)(Cl)C1=O = 380
C[C@@H]1C(=O)O[C@@H](C)/C=C/C=C\[C@@H](C)[C@@H]2C=C[C@@H]3C[C@@]4(C)O[C@H]4[C@@H](C)[C@H]3[C@@H]2C(=O)C(Cl)(Cl)C1=O = 10.3

// switching to the query compound
Task item: Param item = CC1=C[C@@H](C)C2C3C(=O)C(Cl)(Cl)C(=O)[C@H](C)C(=O)O[C@@H](C)/C=C/C=C\[C@@H](C)[C@@H]3C=C[C@@H]2C1 (stereo partly shown) ; retrieve measured solubility.
Reply: 1.8
